Biological target: UniProt:P41245
Sequence (P41245 whole entry): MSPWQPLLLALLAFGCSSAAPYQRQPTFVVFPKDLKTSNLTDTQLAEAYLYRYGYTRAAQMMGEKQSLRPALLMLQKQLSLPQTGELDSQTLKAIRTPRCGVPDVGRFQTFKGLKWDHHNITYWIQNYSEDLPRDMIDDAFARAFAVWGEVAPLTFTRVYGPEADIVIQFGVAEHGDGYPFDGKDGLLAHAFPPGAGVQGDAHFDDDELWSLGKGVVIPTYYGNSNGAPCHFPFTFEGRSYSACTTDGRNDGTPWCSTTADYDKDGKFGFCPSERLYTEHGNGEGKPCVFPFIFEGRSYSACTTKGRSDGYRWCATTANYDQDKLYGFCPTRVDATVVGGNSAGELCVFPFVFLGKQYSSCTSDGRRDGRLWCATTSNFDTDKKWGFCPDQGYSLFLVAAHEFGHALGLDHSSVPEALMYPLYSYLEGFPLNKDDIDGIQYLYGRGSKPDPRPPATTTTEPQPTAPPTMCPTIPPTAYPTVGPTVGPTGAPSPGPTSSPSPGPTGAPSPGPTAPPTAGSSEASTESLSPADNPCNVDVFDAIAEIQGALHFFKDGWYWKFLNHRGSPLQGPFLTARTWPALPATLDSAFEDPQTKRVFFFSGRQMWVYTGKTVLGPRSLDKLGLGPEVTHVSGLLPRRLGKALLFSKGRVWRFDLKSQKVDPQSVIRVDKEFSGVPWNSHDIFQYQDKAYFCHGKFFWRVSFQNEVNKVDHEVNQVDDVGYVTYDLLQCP
Assay: Inhibitory activity against murine gelatinase B at 5 mM was determined
measuredProperty: inhibition (%)

>  <compound>
OCc1nc2ccccc2[nH]1

>  <measuredProperty>
inhibition

>  <unit>
%

>  <comparisonOperator>
=

>  <recordedMeasurement>
26

$$$$
>  <compound>
CC(=O)NO

>  <measuredProperty>
inhibition

>  <unit>
%

>  <comparisonOperator>
<

>  <recordedMeasurement>
5

$$$$
>  <compound>
CC(=O)Nc1nc(C)cs1

>  <measuredProperty>
inhibition

>  <unit>
%

>  <comparisonOperator>
<

>  <recordedMeasurement>
5

$$$$
>  <compound>
NCc1ccccn1

>  <measuredProperty>
inhibition

>  <unit>
%

>  <comparisonOperator>
=

>  <recordedMeasurement>
75

$$$$
>  <compound>
CCNCCN

>  <measuredProperty>
inhibition

>  <unit>
%

>  <comparisonOperator>
<

>  <recordedMeasurement>
5

$$$$
>  <compound>
NCCNCCN

>  <measuredProperty>
inhibition

>  <unit>
%

>  <comparisonOperator>
<

>  <recordedMeasurement>
5

$$$$
>  <compound>
OCc1nc2ccccc2s1

>  <measuredProperty>
inhibition

>  <unit>
%

>  <comparisonOperator>
=

>  <recordedMeasurement>
85

$$$$
>  <compound>
Nc1ccccc1N

>  <measuredProperty>
inhibition

>  <unit>
%

>  <comparisonOperator>
=

>  <recordedMeasurement>
10

$$$$
>  <compound>
Oc1ccccn1

>  <measuredProperty>
inhibition

>  <unit>
%

>  <comparisonOperator>
<

>  <recordedMeasurement>
5

$$$$
>  <compound>
NCCN

>  <measuredProperty>
inhibition

>  <unit>
%

>  <comparisonOperator>
<

>  <recordedMeasurement>
5

$$$$
>  <compound>
NCc1nc2ccccc2[nH]1

>  <measuredProperty>
inhibition

>  <unit>
%

>  <comparisonOperator>
=

>  <recordedMeasurement>
65

$$$$
>  <compound>
NCCc1ccccn1

>  <measuredProperty>
inhibition

>  <unit>
%

>  <comparisonOperator>
<

>  <recordedMeasurement>
5

$$$$
>  <compound>
O=C(O)c1ccccc1

>  <measuredProperty>
inhibition

>  <unit>
%

>  <comparisonOperator>
<

>  <recordedMeasurement>
5

$$$$
>  <compound>
CC(=O)C1CCCC1=O (centres undefined)

>  <measuredProperty>
inhibition

>  <unit>
%

>  <comparisonOperator>
=

>  <recordedMeasurement>
76

$$$$
